Where these numbers come from: patent US20070238700A1

Assignment: determine reported C. felis Mortality (%) 8 h for the given compounds.
# System: Ctenocephalides felis
Reply numerically in %, unit not repeated.

Supply recorded C. felis Mortality (%) 8 h for CC(=NN(C)c1ccccc1)c1cccc(NS(=O)(=O)C(F)(F)F)c1 [Compound 163] here.
8

Supply recorded C. felis Mortality (%) 8 h for CCCCCC(=O)N(CCC#N)/N=C(\C)c1cc(Cl)ccc1NS(=O)(=O)C(F)(F)F [Compound 224] here.
3

Supply recorded C. felis Mortality (%) 8 h for CC(=NN(C)c1ccccc1)c1cc(Cl)ccc1N(C)S(=O)(=O)C(F)(F)F [Compound 109] here.
73

Supply recorded C. felis Mortality (%) 8 h for CCOC(=O)N(CC)N=C(CC)c1cc(Cl)ccc1NS(=O)(=O)C(F)(F)F [Compound 127] here.
100

Supply recorded C. felis Mortality (%) 8 h for CC(=NN(C)c1cccc(Cl)c1)c1cc(Cl)ccc1NS(=O)(=O)C(F)(F)F [Compound 51] here.
100

Supply recorded C. felis Mortality (%) 8 h for CC(=NN(c1ccc(C(F)(F)F)cc1)C(C)C)c1cc(Cl)ccc1NS(=O)(=O)C(F)(F)F [Compound 47] here.
14

Supply recorded C. felis Mortality (%) 8 h for CCC(=NN1CCCCC1)c1cc(Cl)ccc1NS(=O)(=O)C(F)(F)F [Compound 129] here.
27

Supply recorded C. felis Mortality (%) 8 h for CC(=NN(c1cccc(Cl)c1Cl)C(C)C)c1cc(Cl)ccc1NS(=O)(=O)C(F)(F)F [Compound 66] here.
18
